Molecular target: Tyrosine-protein phosphatase non-receptor type 1 (Homo sapiens, UniProt P18031)
Test: Inhibition of recombinant PTP1B (unknown origin) using p-NPP as substrate after 30 mins by UV-spectroscopic analysis
ASSAY READOUT: IC50

Look over these answered cases.
COc1cc(C(=O)OCC(COC(=O)c2cc(Br)c(O)c(OC)c2)OC(=O)c2cc(Br)c(O)c(OC)c2)cc(Br)c1O 8.45 µM
COc1cc(C(=O)O[C@@H]2OC[C@@H](OC(=O)c3cc(Br)c(O)c(OC)c3)[C@H](OC(=O)c3cc(Br)c(O)c(OC)c3)[C@H]2OC(=O)c2cc(Br)c(O)c(OC)c2)cc(Br)c1O 0.75 µM
O=C(OCC(COC(=O)c1ccc(O)c(O)c1)OC(=O)c1ccc(O)c(O)c1)c1ccc(O)c(O)c1 12.3 µM

query: For the molecule shown here, COc1cc(C(=O)OCCOC(=O)c2cc(Br)c(O)c(OC)c2)cc(Br)c1O , give the reported IC50.
result: > 20 µM

----------
Biological target: Tyrosine-protein phosphatase non-receptor type 11 (Homo sapiens)
Sequence (Q06124 whole entry): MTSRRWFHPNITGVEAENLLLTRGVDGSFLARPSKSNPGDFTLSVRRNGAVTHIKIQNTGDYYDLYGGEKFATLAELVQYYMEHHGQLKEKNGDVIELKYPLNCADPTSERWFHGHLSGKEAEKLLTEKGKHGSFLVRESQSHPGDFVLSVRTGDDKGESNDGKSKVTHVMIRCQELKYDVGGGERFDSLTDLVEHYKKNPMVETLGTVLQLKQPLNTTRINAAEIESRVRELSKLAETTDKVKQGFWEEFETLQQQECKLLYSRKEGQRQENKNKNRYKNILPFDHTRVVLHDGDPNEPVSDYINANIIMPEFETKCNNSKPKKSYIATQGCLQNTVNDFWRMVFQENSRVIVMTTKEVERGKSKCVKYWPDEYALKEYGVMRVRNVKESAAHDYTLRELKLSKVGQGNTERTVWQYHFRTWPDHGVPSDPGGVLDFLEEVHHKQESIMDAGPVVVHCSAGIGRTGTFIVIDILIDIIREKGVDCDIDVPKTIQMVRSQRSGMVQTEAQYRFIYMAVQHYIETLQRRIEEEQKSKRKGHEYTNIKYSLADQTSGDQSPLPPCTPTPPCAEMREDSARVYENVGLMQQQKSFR
Assay: Inhibition of SHP2 (unknown origin)
ASSAY READOUT: IC50 (µM)
Output spec: scalar in µM, unitless text.

MOLECULE	UNIT TAG	IC50
O=C(OC[C@H]1OC(OC(=O)c2cc(O)c(O)c(Br)c2)[C@H](OC(=O)c2cc(O)c(O)c(Br)c2)[C@@H]1OC(=O)c1cc(O)c(O)c(Br)c1)c1cc(O)c(O)c(Br)c1 (some centres not stated)	µM	15.9

query: For the molecule shown here, O=C(OCC(COC(=O)c1cc(O)c(O)c(Br)c1)OC(=O)c1cc(O)c(O)c(Br)c1)c1cc(O)c(O)c(Br)c1 , give the reported IC50.
result: 4.53

----------
Biological target: Tyrosine-protein phosphatase non-receptor type 2 (Homo sapiens, UniProt P17706)
Sequence (P17706 whole entry): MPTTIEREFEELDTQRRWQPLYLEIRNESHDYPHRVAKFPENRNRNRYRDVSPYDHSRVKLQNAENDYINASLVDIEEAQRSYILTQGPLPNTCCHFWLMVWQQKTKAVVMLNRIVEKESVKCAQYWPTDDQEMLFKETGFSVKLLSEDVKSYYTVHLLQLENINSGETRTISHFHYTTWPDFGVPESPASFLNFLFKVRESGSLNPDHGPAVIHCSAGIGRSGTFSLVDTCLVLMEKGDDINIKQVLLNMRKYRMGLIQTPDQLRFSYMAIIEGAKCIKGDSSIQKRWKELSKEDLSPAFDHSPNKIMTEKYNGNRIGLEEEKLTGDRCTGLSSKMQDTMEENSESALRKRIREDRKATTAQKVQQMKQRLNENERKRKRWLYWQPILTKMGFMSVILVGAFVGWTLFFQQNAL
ASSAY READOUT: pIC50
Convention used: pIC50 is expressed as -log10 of the molar concentration.

COMPOUND	pIC50
O=C(OC[C@H]1OC(OC(=O)c2cc(O)c(O)c(Br)c2)[C@H](OC(=O)c2cc(O)c(O)c(Br)c2)[C@@H]1OC(=O)c1cc(O)c(O)c(Br)c1)c1cc(O)c(O)c(Br)c1 (some centres not stated)	5.23

As a next step, examine the compound that follows.
query: For the compound shown here, O=C(OCC(COC(=O)c1cc(O)c(O)c(Br)c1)OC(=O)c1cc(O)c(O)c(Br)c1)c1cc(O)c(O)c(Br)c1 , give the reported pIC50.
result: 5.70

----------
In this section, each of the compounds is paired with its reported inhibition.
Target: Tyrosine-protein phosphatase non-receptor type 1 (Homo sapiens) (UniProt P18031)
Sequence (whole entry): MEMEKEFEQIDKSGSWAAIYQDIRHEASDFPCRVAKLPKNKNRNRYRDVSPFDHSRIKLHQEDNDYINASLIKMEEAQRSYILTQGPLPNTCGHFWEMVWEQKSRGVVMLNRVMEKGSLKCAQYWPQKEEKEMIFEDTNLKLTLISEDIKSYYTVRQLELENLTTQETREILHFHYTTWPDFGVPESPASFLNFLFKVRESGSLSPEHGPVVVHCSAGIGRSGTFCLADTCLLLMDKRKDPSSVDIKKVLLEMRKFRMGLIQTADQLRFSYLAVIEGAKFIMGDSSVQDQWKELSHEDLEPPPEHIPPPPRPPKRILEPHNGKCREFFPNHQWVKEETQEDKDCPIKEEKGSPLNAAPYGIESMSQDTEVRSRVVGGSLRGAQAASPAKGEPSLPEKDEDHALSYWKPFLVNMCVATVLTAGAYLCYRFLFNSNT
Assay: Inhibition of recombinant PTP1B (unknown origin) at 10 uM using p-NPP as substrate after 30 mins by UV-spectroscopic analysis
Output spec: scalar in %, unitless text.

Look over these answered cases.
COMPOUND	ASSAY READOUT	OBSERVED VALUE
O=C(OC[C@H]1OC(OC(=O)c2cc(O)c(O)c(Br)c2)[C@H](OC(=O)c2cc(O)c(O)c(Br)c2)[C@@H]1OC(=O)c1cc(O)c(O)c(Br)c1)c1cc(O)c(O)c(Br)c1 (stereo not given in full)	inhibition	96.4
O=C(OCCOC(=O)c1cc(O)c(O)c(Br)c1)c1cc(O)c(O)c(Br)c1	inhibition	25
CC(C)(C)[Si](C)(C)Oc1cc(C(=O)OC2OC[C@@H](OC(=O)c3cc(Br)c(O[Si](C)(C)C(C)(C)C)c(O[Si](C)(C)C(C)(C)C)c3)[C@H](OC(=O)c3cc(Br)c(O[Si](C)(C)C(C)(C)C)c(O[Si](C)(C)C(C)(C)C)c3)[C@H]2OC(=O)c2cc(Br)c(O[Si](C)(C)C(C)(C)C)c(O[Si](C)(C)C(C)(C)C)c2)cc(Br)c1O[Si](C)(C)C(C)(C)C (stereo not given in full)	inhibition	41.9

query: For the compound shown here, O=C(O[C@@H]1OC[C@@H](OC(=O)c2cc(O)c(O)c(Br)c2)[C@H](OC(=O)c2cc(O)c(O)c(Br)c2)[C@H]1OC(=O)c1cc(O)c(O)c(Br)c1)c1cc(O)c(O)c(Br)c1 , give the reported inhibition.
result: 99

query: Now this one: O=C(OCC(COC(=O)c1cc(O)c(O)c(Br)c1)OC(=O)c1cc(O)c(O)c(Br)c1)c1cc(O)c(O)c(Br)c1
result: 95.5

----------
Target: Tyrosine-protein phosphatase non-receptor type 1 (Homo sapiens, UniProt P18031)
Sequence (P18031 whole entry): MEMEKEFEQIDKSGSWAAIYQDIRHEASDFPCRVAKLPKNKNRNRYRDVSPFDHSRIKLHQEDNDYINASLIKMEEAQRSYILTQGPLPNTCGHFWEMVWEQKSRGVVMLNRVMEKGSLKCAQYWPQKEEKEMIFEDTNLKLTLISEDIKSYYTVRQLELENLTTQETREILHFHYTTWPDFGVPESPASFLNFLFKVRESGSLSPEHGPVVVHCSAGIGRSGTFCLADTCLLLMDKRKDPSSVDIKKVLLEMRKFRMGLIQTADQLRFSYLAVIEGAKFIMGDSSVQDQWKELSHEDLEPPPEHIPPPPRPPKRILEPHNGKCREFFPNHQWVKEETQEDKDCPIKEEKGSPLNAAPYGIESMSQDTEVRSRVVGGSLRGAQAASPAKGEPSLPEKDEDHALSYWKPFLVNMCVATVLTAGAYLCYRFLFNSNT
Test: Inhibition of recombinant PTP1B (unknown origin) using p-NPP as substrate after 30 mins by UV-spectroscopic analysis
In this section, each of the compounds is paired with its reported IC50.
Output spec: scalar in µM, unitless text.

Look over these answered cases.
COMPOUND	OBSERVED VALUE
COc1cc(C(=O)OC[C@H]2OC(OC(=O)c3cc(Br)c(OC)c(OC)c3)[C@H](OC(=O)c3cc(Br)c(OC)c(OC)c3)[C@@H]2OC(=O)c2cc(Br)c(OC)c(OC)c2)cc(Br)c1OC (stereo not given in full)	3.41
O=C(OC[C@H]1OC(OC(=O)c2ccc(O)c(O)c2)[C@H](OC(=O)c2ccc(O)c(O)c2)[C@@H]1OC(=O)c1ccc(O)c(O)c1)c1ccc(O)c(O)c1 (stereo not given in full)	2.2
O=C(OC1OC[C@@H](OC(=O)c2ccc(O)c(O)c2)[C@H](OC(=O)c2ccc(O)c(O)c2)[C@H]1OC(=O)c1ccc(O)c(O)c1)c1ccc(O)c(O)c1 (stereo not given in full)	3

As a next step, examine the compound that follows.
query: For the compound shown here, O=C(O[C@@H]1OC[C@@H](OC(=O)c2cc(O)c(O)c(Br)c2)[C@H](OC(=O)c2cc(O)c(O)c(Br)c2)[C@H]1OC(=O)c1cc(O)c(O)c(Br)c1)c1cc(O)c(O)c(Br)c1 , give the reported IC50.
result: 0.2

----------
Target: Tyrosine-protein phosphatase non-receptor type 1 (Homo sapiens)
Assay: Inhibition of recombinant PTP1B (unknown origin) at 10 uM using p-NPP as substrate after 30 mins by UV-spectroscopic analysis
ASSAY READOUT: inhibition (%)
Output spec: scalar in %, unitless text.

Look over these answered cases.
COMPOUND	inhibition, %
CC(C)(C)[Si](C)(C)Oc1cc(C(=O)OCCOC(=O)c2cc(Br)c(O[Si](C)(C)C(C)(C)C)c(O[Si](C)(C)C(C)(C)C)c2)cc(Br)c1O[Si](C)(C)C(C)(C)C	32.8
CC(C)(C)[Si](C)(C)Oc1cc(C(=O)O)cc(Br)c1O[Si](C)(C)C(C)(C)C	24.2
CC(C)(C)[Si](C)(C)Oc1cc(C(=O)OCC(COC(=O)c2cc(Br)c(O[Si](C)(C)C(C)(C)C)c(O[Si](C)(C)C(C)(C)C)c2)OC(=O)c2cc(Br)c(O[Si](C)(C)C(C)(C)C)c(O[Si](C)(C)C(C)(C)C)c2)cc(Br)c1O[Si](C)(C)C(C)(C)C	12

query: Return inhibition measured with Tyrosine-protein phosphatase non-receptor type 1 (Homo sapiens) given this compound: CC(C)(C)[Si](C)(C)Oc1cc(C(=O)OC[C@H]2OC(OC(=O)c3cc(Br)c(O[Si](C)(C)C(C)(C)C)c(O[Si](C)(C)C(C)(C)C)c3)[C@H](OC(=O)c3cc(Br)c(O[Si](C)(C)C(C)(C)C)c(O[Si](C)(C)C(C)(C)C)c3)[C@@H]2OC(=O)c2cc(Br)c(O[Si](C)(C)C(C)(C)C)c(O[Si](C)(C)C(C)(C)C)c2)cc(Br)c1O[Si](C)(C)C(C)(C)C (some centres undefined)
result: 43.6
